System: DYRK1B;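 further: KINOMEscan scanMAX binding as percent activity remaining versus control; lower means stronger binding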
Conditions: Compound Concentration (nM):1000
attributeMeasured: Percent Control (%)
Please give a number only; it is taken to be in %.

COc1ccccc1-c1cc(/C=C2\C(=O)Nc3ncc(Br)cc32)cc(Br)c1O [GW442130X] = 68
NS(=O)(=O)c1ccc(Nc2ncc(-c3ccccc3)o2)cc1 [GW572399X] = 81
CN(C)CCNC(=O)Nc1ccc(N(C)c2ccnc(Nc3ccc(CS(C)(=O)=O)cc3)n2)cc1.Cl [GW830900A] = 100
COc1ccc2cc(-c3c(-c4ccncc4)nc(-c4ccc(S(C)(=O)=O)cc4C)n3C)ccc2c1 [SB-633825] = 100
COc1ccc2[nH]c3c4[nH]c5ccc(OC)cc5c4c4c(c3c2c1)C(=O)NC4=O [GW296115X] = 79

Data request: Param readout= Percent Control; system= DYRK1B; entry= COc1cc2ncn(-c3cc(O[C@H](C)c4ccccc4Cl)c(C(N)=O)s3)c2cc1OC [GSK237701A] ; returns value.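 Further: KINOMEscan scanMAX binding as percent activity remaining versus control; lower means stronger binding.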
Data returned: 100

Data request: Param readout= Percent Control; system= DYRK1B; entry= CCc1ccc(Oc2nccc(-c3c(-c4ccc(F)cc4)ncn3C3CCNCC3)n2)cc1 [SB-242719] ; returns value.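 Further: KINOMEscan scanMAX binding as percent activity remaining versus control; lower means stronger binding.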
Data returned: 98

Data request: Param readout= Percent Control; system= DYRK1B; entry= CC1=C(C(=O)Nc2ccc3[nH]ncc3c2)C(c2ccc3ccccc3c2)CC(=O)N1 (centres unmarked) [GSK270822A] ; returns value.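 Further: KINOMEscan scanMAX binding as percent activity remaining versus control; lower means stronger binding.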
Data returned: 83
